// data source = PubChem BioAssay AID492998

test: Vero E6 cell cytotoxicity, dose response, cytotoxicity control for non-replicating M. tuberculosis project, secondary assay (AID 492998); conditions: series mostly up to 20 µM
Hit rate of the full screen: of about 2,300 compounds, about 550 (24%) were called active. Not all results are given here. Entries with a potency or affinity are not part of this list.
ASSAY_READOUT: outcome

Here are 5 molecules together with their reported answers.
COC(=O)CCCCCN1C(=O)/C(=C\c2ccncc2)SC1=S	inactive
O=C(O)CCCCCN1C(=O)CSC1=S	inactive
Cc1cc(C)n(C(=O)c2ccc([N+](=O)[O-])cc2[N+](=O)[O-])n1	inactive
Cc1ccc(N2NC(=O)/C(=C/C=C/c3ccco3)C2=O)cc1C	inactive
O=C1Nc2cc(C(=O)NCCCN3CCOCC3)ccc2S/C1=C/c1cccc(Cl)c1	inactive

# outcome of COc1ccc(CN=C2NN=C(c3ccc(Cl)cc3)CS2)cc1 = inactive

Measured outcome, CC(=O)N(c1nnc(-c2ccc(C)cc2)s1)C1CCCC1 : inactive

Reported outcome ( Cc1ccc(NC(=O)CO/N=C/c2ccccc2C)c(C)c1 ) = inactive

According to the records, this molecule CC1CC(C)CN(CCOCCSc2ccc(Cl)cc2)C1 (centres undefined) displays outcome of inactive

Field outcome (entry COCCOC(=O)c1c(C)oc2ccc(OC(=O)c3ccco3)cc12 ) reads inactive

Input CN1CCN(/N=C/c2ccc(-c3ccc([N+](=O)[O-])cc3Cl)o2)CC1 . Output outcome: inactive

====

assay: Vero E6 cell cytotoxicity, dose response, cytotoxicity control for non-replicating M. tuberculosis project, secondary assay (AID 492998); settings: series mostly up to 20 µM
The whole screen tested about 2,300 compounds, of which about 550 (24%) were called active. A selection follows. Results with a measured potency or affinity are listed apart.
ASSAY_READOUT: outcome

COc1ccc2c([N+](=O)[O-])c(N3CCCC3)[nH]c2c1	inactive
S=C1CN=C(c2ccccc2)c2cc(Cl)ccc2N1	inactive
Clc1ccc(SCCOCCN2CCc3ccccc3C2)cc1	inactive
CC(NC(=O)c1cccc(F)c1)C1CC2CCC1C2 (configuration not stated)	inactive
c1ccc(-c2n[nH]c(-c3ccccn3)n2)nc1	inactive
Cc1cccc(CSc2nnc(-c3ccco3)o2)c1	inactive
Cc1ncsc1CCOC(=O)c1ccc([N+](=O)[O-])cc1	inactive
CC(C)=CC1C(C(=O)Nc2ccc(Br)cn2)C1(C)C (configuration not stated)	inactive

# ---- query compound ----
Noted for CC(OC(=O)c1ccc2c(=O)n3c(nc2c1)CCCCC3)C(=O)Nc1ccc(Cl)cn1 (configuration not stated) : its outcome reads inactive

====

assay: Vero E6 cell cytotoxicity, dose response, cytotoxicity control for non-replicating M. tuberculosis project, secondary assay (AID 492998); conditions: series mostly up to 20 µM
Screen size: about 2,300 compounds; about 550 (24%) were called active. A selection follows. Potency and affinity values are given separately.
ASSAY_READOUT: outcome

C#CCOc1coc(COC(=O)c2ccccc2)cc1=O	inactive
COc1cccc(NC(=O)c2cc3ccccc3oc2=O)c1	inactive
O=C(OCC(=O)N1CCc2ccccc2C1)c1cccc([N+](=O)[O-])c1	inactive
N/C(=N/OC(=O)c1ccc(Cl)cc1)c1ncc([N+](=O)[O-])s1	inactive

The recorded outcome for CC(=O)N1CCN(C(=O)CC2OC(=O)c3ccccc32)CC1 (stereo not drawn) is inactive

// outcome lookup, molecule = FC(F)(F)c1ccc(-c2nnc(-c3cccnc3)o2)cc1 , result: inactive

Short answer for CCC(C)(C)c1ccc(OCC(=O)Nc2ccncc2)cc1 : outcome was inactive

Lab note: CCCCCn1nnc2c(=O)oc3ccccc3c21 gave outcome of inactive

O=C1CCC/C(=N/Nc2ccc(Cl)cc2)C1 yielded outcome of inactive

Recorded result, Clc1ccc(SCCCCn2ccnc2)cc1 , outcome: inactive

The reported value for COc1ccc(OC(=O)c2cc3ccccc3o2)cc1 in terms of outcome is inactive

Note to self: outcome recorded for O=C(OCC(=O)N1CCN(c2ccccc2)CC1)c1ccc2ccccc2n1 was inactive

According to the records, this molecule Cc1nc(Cl)nc(N(C)c2ccccc2)c1[N+](=O)[O-] displays outcome of inactive
